Hello, the source for this data is PubChem BioAssay (NCI), in case you need it.

System: OVCAR-3 ovarian
run description: NCI tumour cell line growth inhibition, 48 h
parameter measured: TGI

The following molecules have reported results that may help.
[[record]]
molecule = "Cn1c(=O)c2nc(N3CCCCC3)cnc2n(C)c1=O"
target_of_assay = "OVCAR-3 ovarian"
readout_value = "> 100 µM"

[[record]]
molecule = "S=C1SC(c2ccc(Cl)cc2)(c2ccc(Cl)cc2)c2ccccc21"
target_of_assay = "OVCAR-3 ovarian"
readout_value = "> 100 µM"

[[record]]
molecule = "CCCCCC(/C=N/N)C(O)(C(F)(F)F)C(F)(F)F (stereo not given)"
target_of_assay = "OVCAR-3 ovarian"
readout_value = "> 10 µM"


Inquiry: What value of measured TGI is listed for CCOC(=O)c1cc(-c2ccc(Cl)cc2)c([N+](=O)[O-])n1C ?
Reply text: > 10 µM

Inquiry: What value of measured TGI is listed for N#Cc1c2nc3ccccc3nc2n2ccc3ccccc3c12 ?
Reply text: > 100 µM

---

Test system: SK-MEL-5 melanoma
run description: NCI tumour cell line growth inhibition, 48 h
Quick reference: log10 TGI of the listed items.
Hey, these are logged values: log10 of TGI, µM being the unit before logging.

Inquiry: What value of measured log10 TGI is listed for CSc1nc2c(c(=O)[nH]1)C(c1ccc(Cl)cc1)C1=C(N2)/C(=C/c2ccc(Cl)cc2)CNC1 (stereo not given) ?
Reply text: 1.09

Inquiry: What value of measured log10 TGI is listed for COc1cc(NC(N)=NCCC(C)(C)c2ccc(C(F)(F)F)cc2)ncc1C#N ?
Reply text: 0.47

Inquiry: What value of measured log10 TGI is listed for Cn1cnc([N+](=O)[O-])c1Sc1nc(N)nc2c1ncn2Cc1ccccc1 ?
Reply text: 1.61

Inquiry: What value of measured log10 TGI is listed for COC(=O)[C@@H]1C[C@]2(CC=C(C)C)c3ccccc3N(S(=O)(=O)c3ccccc3)[C@@H]2N1C(=O)OC ?
Reply text: 1.41

Inquiry: What value of measured log10 TGI is listed for O=C(/C=C/c1cccnc1)c1ccccc1O ?
Reply text: 1.49

---

Test system: SK-OV-3 ovarian
run description: NCI tumour cell line growth inhibition, 48 h
Quick reference: TGI of the listed items.

[[record]]
molecule = "COc1cc2c3c(n(CCCCl)c(=O)c2cc1OC)-c1ccc(C#N)cc1C3=O"
readout_value = "44 µM"

[[record]]
molecule = "O=C(O)/C=C\\C(=O)Nc1ccc2c(c1)C(=O)c1cc(F)ccc1-2"
readout_value = "> 100 µM"

[[record]]
molecule = "O=c1[nH]c(/C=C(\\O)c2ccncc2)nc2ccccc12"
readout_value = "> 100 µM"

[[record]]
molecule = "COc1cc(-c2cc(CCC(=O)Nc3ccccc3[N+](=O)[O-])n(-c3ccc([N+](=O)[O-])cc3[N+](=O)[O-])n2)ccc1O"
readout_value = "> 100 µM"

[[record]]
molecule = "Cc1ccc(C2=C(c3ccccc3)C(O)(c3ccc(C)cc3)C(c3ccccc3)=C2c2ccc(C)cc2)cc1"
readout_value = "> 100 µM"

[[record]]
molecule = "CCN1CCN(C(=O)[C@]23CCC(C)(C)C[C@@H]2C2=CC[C@@H]4[C@@]5(C)C/C(=C/c6cccnc6)C(=O)C(C)(C)[C@@H]5CC[C@@]4(C)[C@]2(C)CC3)CC1"
readout_value = "16.8 µM"


Inquiry: What value of measured TGI is listed for O=C1C(N2C(=O)c3ccccc3C2=O)CN1C(COCc1ccccc1)c1ccc(OCc2ccccc2)cc1 (stereo not drawn) ?
Reply text: > 100 µM

Inquiry: What value of measured TGI is listed for COc1ccc(CNc2nc(NCc3ccc(OC)cc3)c3n[nH]c(C(C)C)c3n2)cc1 ?
Reply text: 22.9 µM
